Tested on: Drosophila melanogaster bursicon receptor LGR2 (rickets)
Run Description: blockers of bursicon-stimulated LGR2 cAMP reporter – cell-based, HEK293, CRE-luciferase reporter, cherry pick, set 2, dose response (AID 743343)
Assay Conditions: bursicon-induced cAMP antagonist; series mostly up to 35 µM
Measured potencies and affinities stand elsewhere. Calls of active or inactive are those of the source. How the calls were made is not given here.
Experimental Endpoint: outcome

// worked examples, outcome included
1. CO[C@H]1CN(C)C(=O)c2ccc(NC(=O)c3ccc(-c4ccccc4)cc3)cc2OC[C@@H](C)NC[C@@H]1C : inactive
2. COc1ccccc1C=NNC(=O)c1ccncc1 : inactive
3. O=[N+]([O-])c1ccc(-c2cnc(SC(c3ccccc3)c3ccccc3)[nH]2)cc1 : inactive
4. Cn1nnnc1SCC(=O)N1CCN(C(=O)c2ccco2)CC1 : inactive
5. COc1ccc(-c2nc(N)n(C(=O)c3cccs3)n2)cc1 : inactive
6. Cc1cccn2c(CNCC3(c4ccccc4)CCCC3)c(C(=O)N3CCOCC3)nc12 : inactive
7. Cn1cnc(S(=O)(=O)N2C[C@@H](O)COC[C@H]3O[C@H](CC(=O)NC4CCCC4)CC[C@@H]32)c1 : inactive
8. O=C(Cn1ncc(Cl)c(Cl)c1=O)N1CCOCC1 : inactive
9. COc1ccccc1CN(C)C[C@@H]1OCc2cnnn2CCCC(=O)N([C@H](C)CO)C[C@H]1C : inactive
10. Cc1noc2ncnc(Sc3ccc(Br)cc3)c12 : inactive

Lookup: Param item = C[C@H](CO)N1C[C@H](C)[C@@H](CN(C)C(=O)Nc2ccc3c(c2)OCO3)Oc2c(cccc2N(C)C)C1=O ; retrieve measured outcome.
Found: inactive

Lookup: Same question, Cn1c(=O)c2cc(NC(=O)NCc3ccccc3)ccc2n1C/C=C/c1ccccc1 this time
Found: inactive

Lookup: Same question, Cn1nnnc1Sc1ncnc2scc(-c3ccccc3C(F)(F)F)c12 this time
Found: inactive

Lookup: Same question, C[C@H](CO)N1C[C@H](C)[C@@H](CN(C)CC2CCOCC2)Oc2ncc(Br)cc2C1=O this time
Found: inactive

Lookup: Same question, COc1cccc(-c2ccc(C3[C@@H]4CN(C(=O)C5CC5)C[C@H]3N4)cc2)c1 (stereo partly drawn) this time
Found: inactive

Lookup: Same question, CCOC(=O)Nc1ccc(N2CCOCC2)c(S(=O)(=O)Nc2ccc(Cl)cc2)c1 this time
Found: inactive

Lookup: Same question, c1ccc(COc2cccc(-c3cc4nc(NCCCn5ccnc5)ccn4n3)c2)cc1 this time
Found: inactive

Lookup: Same question, CCOc1cccc2sc(Nc3nc4ccc(NC(C)=O)cc4s3)nc12 this time
Found: inactive

Lookup: Same question, C[C@H](CO)N1C[C@H](C)[C@H](CN(C)C(=O)CN2CCOCC2)Oc2ncc(C#CCN(C)C)cc2C1=O this time
Found: inactive

Lookup: Same question, O=c1cc(-c2c(F)c(F)c(F)c(F)c2F)oc2ccccc12 this time
Found: inactive
